- systemUnderTest: UniProt P34972
- methodNotes: functional cAMP assay, CHO cells expressing human CB2
- Type: cell-based
- conditionInfo: Human CB2 EC50 (uM)
readoutLabel: EC50

compound="CC(CC(N)=O)(NC(=O)c1cc(OCC(F)F)c(C2CC2)cn1)C1CC1 (single isomer, unassigned) [Example 272]" measuredresult="0.0495 µM"

Report EC50 on UniProt P34972 for this entry: Cc1nc([C@](C)(NC(=O)c2cc(OCC(F)(F)F)c(N3CC(F)(F)C3)cn2)C2CC2)no1 (single isomer, unassigned; enantiomer a)
0.0568 µM

###

- systemUnderTest: human CB2 receptors (Homo sapiens (Human), UniProt P34972)
- Sequence (P34972 whole entry): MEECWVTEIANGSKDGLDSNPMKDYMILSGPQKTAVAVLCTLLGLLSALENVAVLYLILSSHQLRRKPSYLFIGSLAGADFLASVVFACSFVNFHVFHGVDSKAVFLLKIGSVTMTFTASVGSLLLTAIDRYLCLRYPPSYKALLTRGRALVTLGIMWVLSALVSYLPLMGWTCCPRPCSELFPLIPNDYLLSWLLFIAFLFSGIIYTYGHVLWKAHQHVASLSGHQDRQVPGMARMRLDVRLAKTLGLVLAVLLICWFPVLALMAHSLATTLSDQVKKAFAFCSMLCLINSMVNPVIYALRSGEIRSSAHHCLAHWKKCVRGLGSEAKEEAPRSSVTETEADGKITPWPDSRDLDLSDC
- methodNotes: functional cAMP assay, CHO cells expressing human CB2
- Type: cell-based
- conditionInfo: Human CB2 EC50 (uM)
log10 of EC50 values for the compounds below.
For clarity, the numbers are log10 values of EC50 expressed in µM.

Solved entries:
compound="Cc1nc(C(C)(NC(=O)c2cc(OCC(F)(F)F)c(C3(F)COC3)cn2)C2CC2)no1 (single isomer, unassigned) [Example 167]" readoutlabel="log10 of EC50" measuredresult=-1.55
compound="Cc1nc(C(C)(CS(C)(=O)=O)NC(=O)c2cc(OC(C)CF)c(C3CC3)cn2)no1 (single isomer, unassigned) [Example 296]" readoutlabel="log10 of EC50" measuredresult=-1.37
compound="CC(CC(N)=O)(NC(=O)c1cc(OCC(F)(F)F)c(C2CC2)cn1)C1CC1 (single isomer, unassigned) [Example 243]" readoutlabel="log10 of EC50" measuredresult=-3.30
compound="Cc1nc(C(C)(CS(C)(=O)=O)NC(=O)c2cc(OCC(F)F)c(C3CC3)cn2)no1 (single isomer, unassigned) [Example 284]" readoutlabel="log10 of EC50" measuredresult=-1.34
compound="Cc1nnc(C(NC(=O)c2cc(OCC(F)(F)F)c(C3CC3)cn2)C(C)(C)C)o1 (single isomer, unassigned) [Example 178]" readoutlabel="log10 of EC50" measuredresult=-1.98
compound="Cc1nc([C@@](C)(CC2CC2)NC(=O)c2cc(OCC(F)(F)F)c(Cl)cn2)no1 (single isomer, unassigned) [Example 93]" readoutlabel="log10 of EC50" measuredresult=-1.19
compound="Cc1nc([C@@](C)(CC(C)(C)C)NC(=O)c2cc(OCC(F)(F)F)c(C3CC3)cn2)no1 (single isomer, unassigned) [Example 104]" readoutlabel="log10 of EC50" measuredresult=-1.53
compound="Cc1nc(C(C)(CC2CC2)NC(=O)c2cc(OC(C)CF)c(C3CC3)cn2)no1 (single isomer, unassigned) [Example 288]" readoutlabel="log10 of EC50" measuredresult=-3.10
compound="Cc1nc(C(C)(CS(C)(=O)=O)NC(=O)c2cc(O[C@@H](C)C(F)(F)F)c(C3CC3)cn2)no1 (stereo partly shown) [Example 81]" readoutlabel="log10 of EC50" measuredresult=-2.28
compound="CC(CC(N)=O)(NC(=O)c1cc(OCC(F)F)c(C2CC2)cn1)C1CC1 (single isomer, unassigned) [Example 273]" readoutlabel="log10 of EC50" measuredresult=-2.77

Fill in reported log10 of EC50 for this entry: Cc1nc(C(C)(CC2CC2)NC(=O)c2cc(OCC(F)(F)F)c(C3CCC3)cn2)no1 (single isomer, unassigned) [Example 117]
-2.62

Fill in reported log10 of EC50 for this entry: CC(C)(C)C(NC(=O)c1cc(OCC2CC2)c(N2CC(F)(F)C2)cn1)C(N)=O (single isomer, unassigned) [Example 260]
-1.68

Fill in reported log10 of EC50 for this entry: CNC(=O)CC(C)(NC(=O)c1cc(OCC(F)(F)F)c(C2CC2)cn1)C1CC1 (single isomer, unassigned) [Example 242]
-0.63

###

- systemUnderTest: human CB2 receptors (Homo sapiens (Human), UniProt P34972)
- methodNotes: functional cAMP assay, CHO cells expressing human CB2
- Assay type: cell-based
- conditionInfo: Human CB2 EC50 (uM)
EC50 values for the compounds below.
Reply numerically in µM, unit not repeated.

Solved entries:
compound="Cc1nc([C@@](C)(CS(C)(=O)=O)NC(=O)c2cc(OCC(F)(F)F)c(C3CC3)cn2)no1 (single isomer, unassigned)" systemundertest="human CB2 receptors (Homo sapiens (Human), UniProt P34972)" readoutunits=µM measuredresult=0.0706
compound="Cc1nc(C(C)(CC2CC2)NC(=O)c2cc(OCC(F)(F)F)c(C3CC3)cn2)no1 (single isomer, unassigned; enantiomer a)" systemundertest="human CB2 receptors (Homo sapiens (Human), UniProt P34972)" readoutunits=µM measuredresult=0.00595
compound="Cc1nc([C@@](C)(NC(=O)c2cc(OCC(F)(F)F)c(N3CC(F)(F)C3)cn2)C2CC2)no1 (single isomer, unassigned)" systemundertest="human CB2 receptors (Homo sapiens (Human), UniProt P34972)" readoutunits=µM measuredresult=0.0105

Fill in reported EC50 for this entry: Cc1nc(C(C)(CC2CC2)NC(=O)c2cc(OCC(F)F)c(C3CC3)cn2)no1 (single isomer, unassigned) [Example 154]
0.0037

Fill in reported EC50 for this entry: CNC(=O)C(C)(NC(=O)c1cc(OCC(F)(F)F)c(C2CC2)cn1)c1noc(C)n1 (single isomer, unassigned) [Example 187]
0.416

Fill in reported EC50 for this entry: Cc1nc([C@](C)(CC2CC2)NC(=O)c2cc(OCC(F)(F)F)c(Cl)cn2)no1 (single isomer, unassigned)
0.0747

###

- systemUnderTest: human CB2 receptors (Homo sapiens (Human))
- methodNotes: functional cAMP assay, CHO cells expressing human CB2
- Type: cell-based
- conditionInfo: read-out: Human CB2 EC50
EC50 values for the compounds below.
Reply numerically in nM, unit not repeated.

Fill in reported EC50 for this entry: Cc1nc(C(C)(CS(C)(=O)=O)NC(=O)c2cc(OCC(F)(F)F)c(C3CCC3)cn2)no1 (centres unmarked) [Example 109]
15.7

Fill in reported EC50 for this entry: Cc1nc(C(C)(NC(=O)c2cc(OCC(F)(F)F)c(N3CC(F)(F)C3)cn2)C2CC2)no1 (centres unmarked) [Example 78]
6.1

Fill in reported EC50 for this entry: NC(=O)CC1(NC(=O)c2cc(OCC(F)(F)F)c(C3CCC3)cn2)CS(=O)(=O)C1 [Example 299]
2

###

- systemUnderTest: human CB1 receptors (Homo sapiens (Human))
- Sequence (P21554 whole entry): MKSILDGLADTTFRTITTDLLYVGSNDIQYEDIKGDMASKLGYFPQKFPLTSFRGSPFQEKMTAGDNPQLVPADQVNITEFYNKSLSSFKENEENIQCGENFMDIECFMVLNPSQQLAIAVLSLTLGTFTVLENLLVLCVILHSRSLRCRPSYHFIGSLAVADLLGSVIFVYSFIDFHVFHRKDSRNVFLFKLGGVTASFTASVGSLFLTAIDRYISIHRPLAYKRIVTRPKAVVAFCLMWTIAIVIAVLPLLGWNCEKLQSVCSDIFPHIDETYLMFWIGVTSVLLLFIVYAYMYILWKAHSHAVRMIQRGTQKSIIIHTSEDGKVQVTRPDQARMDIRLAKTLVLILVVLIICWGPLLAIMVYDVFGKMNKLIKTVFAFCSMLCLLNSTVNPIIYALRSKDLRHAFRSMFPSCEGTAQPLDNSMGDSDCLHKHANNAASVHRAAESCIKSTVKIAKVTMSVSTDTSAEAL
- methodNotes: functional cAMP assay, CHO cells expressing human CB1
- Assay type: cell-based
- conditionInfo: functional cAMP assay, CHO cells expressing human CB1; read-out: Human CB1 EC50
pEC50: −log10 of the molar value.
readoutLabel: pEC50

compound="Cc1nc(C(C)(CS(C)(=O)=O)NC(=O)c2cc(OCC(F)(F)F)c(C3(O)CCC3)cn2)no1 (stereo not shown)" measuredresult="< 5.00"
compound="CNC(=O)C(NC(=O)c1cc(OCC(F)(F)F)c(C2CC2)cn1)C(C)(C)F (stereo not shown)" measuredresult="< 5.00"
compound="Cc1nc(C(C)(CS(C)(=O)=O)NC(=O)c2cc(O[C@@H](C)C(F)(F)F)c(C3CCC3)cn2)no1 (stereo partly shown) [Example 111]" measuredresult=6.37

Here's the next entry for you.
Fill in reported pEC50 for this entry: CC(C)(C)C(NC(=O)c1cc(OCC(F)(F)F)c(C2CC2)cn1)c1nn[nH]n1 (stereo not shown)
< 5.00

###

EC50 values for the molecules below.
- systemUnderTest: human CB2 receptors (Homo sapiens (Human), UniProt P34972)
- methodNotes: functional cAMP assay, CHO cells expressing human CB2
- Type: cell-based
- conditionInfo: read-out: Human CB2 EC50
Entry format: amount then unit.

Solved entries:
molecule="Cc1nc(C(C)(CS(C)(=O)=O)NC(=O)c2cc(O[C@@H](C)C(F)(F)F)c(C3CCC3)cn2)no1 (stereo partly drawn) [Example 119]" measuredresult="9.1 nM"
molecule="CC(C)C[C@H](NC(=O)c1cc(OCC(F)(F)F)c(C2CC2)cn1)C(N)=O [Example 52]" measuredresult="77.8 nM"

Fill in reported EC50 for this entry: Cc1nc(C(C)(NC(=O)c2cc(O[C@H](C)C(F)(F)F)c(C3CC3)cn2)C2CC2)no1 (single isomer, unassigned; epimer b) [Example 73]
0.25 nM

Fill in reported EC50 for this entry: Cc1nnc(C(C)(CC2COC2)NC(=O)c2cc(O[C@@H](C)C(F)(F)F)c(C3CC3)cn2)o1 (stereo partly drawn) [Example 190]
559 nM

Fill in reported EC50 for this entry: Cc1nc(C(NC(=O)c2cc(O[C@@H](C)C(F)(F)F)c(C3CC3)cn2)C2(C)COC2)no1 (stereo partly drawn) [Example 255]
6.7 nM

Fill in reported EC50 for this entry: Cc1nc(C(C)(CS(C)(=O)=O)NC(=O)c2cc(O[C@@H](C)C(F)(F)F)c(C3(F)CCC3)cn2)no1 (stereo partly drawn) [Example 138]
21.7 nM

Fill in reported EC50 for this entry: CC(CF)Oc1cc(C(=O)NC(C)(CC(N)=O)C2CC2)ncc1C1CC1 (single isomer, unassigned) [Example 303]
48.5 nM

Fill in reported EC50 for this entry: Cc1nc(C(C)(CC2CC2)NC(=O)c2cc(OCCF)c(C3CC3)cn2)no1 (stereo not drawn) [Example 146]
1.8 nM

Fill in reported EC50 for this entry: NC(=O)CC1(NC(=O)c2cc(OCCF)c(C3CC3)cn2)CS(=O)(=O)C1 [Example 281]
23.1 nM

Fill in reported EC50 for this entry: CC(C)(CO)NC(=O)c1cc(-c2cccc(Cl)c2)c(Cl)cn1 [Example 2]
96.3 nM
